System: Caco-2
Method description: cell viability relative to DMSO; higher = less toxic
Recorded conditions: 72 h; 100 nM
So I've got a bunch of compounds here, and I need their cell viability values.
Answers are plain numbers, in %.

c1ccc(CNc2nc(NCc3ccccc3)c3ccccc3n2)cc1 ... 94.5
CN(C)C(=O)n1nnnc1Cc1ccc(-c2ccccc2)cc1 ... 100
Cc1cc(-c2ccccc2)nnc1NCCN1CCOCC1 ... 98.4

Please state, for each entry, its recorded cell viability.
1. O=C(CCc1ccc(O)cc1)c1c(O)cc(O)cc1O[C@@H]1O[C@H](CO)[C@@H](O)[C@H](O)[C@H]1O
2. CCc1cccc2c3c([nH]c12)C(CC)(CC(=O)O)OCC3 (stereo unspecified)
3. CC(C)C[C@H](CN)CC(=O)O
4. O=C1NN(C(=O)Nc2ccc(Br)cc2)[C@@H](c2ccccc2)[C@@H]1c1ccccc1

Reply:
1. 98.3
2. 82.7
3. 95
4. 100

Please state, for each entry, its recorded cell viability.
1. O=C(O)[C@H]1CN(CCCP(=O)(O)O)CCN1
2. COC(F)(F)C(Cl)Cl

Reply:
1. 103
2. 96.9

Please state, for each entry, its recorded cell viability.
1. OCCNCCCOc1cccc(Cl)c1Cl
2. O=C(/C=C/c1ccc2ccccc2n1)c1ccncc1

Reply:
1: 106; 2: 95.8

====

So I've got a bunch of molecules here, and I need their cell viability values.
Tested on: U2OS
Method description: cell viability relative to DMSO; higher = less toxic
Recorded conditions: 72 h; 10000 nM
Give bare numbers, in %.

CCCC(CCC)C(=O)O[C@H]1C[C@H]2CC[C@@H](C1)[N+]2(C)C ... 90.7
O=C(CCc1ccc(O)cc1)c1c(O)cc(O)cc1O[C@@H]1O[C@H](CO)[C@@H](O)[C@H](O)[C@H]1O ... 94.5
O=C1NC(=O)[C@@H](c2cn3c4c(cccc24)CCC3)[C@@H]1c1c[nH]c2ccccc12 [tivantinib] ... 26.2
CCc1c(C(=O)NCCc2ccc(N3CCCCC3)cc2)[nH]c2ccc(Cl)cc12 ... 98.6
CC[C@@]1(O)C(=O)OCc2c1cc1n(c2=O)Cc2cc3c(CN(C)C)c(O)ccc3nc2-1 ... 5.9

Please state, for each entry, its recorded cell viability.
1. O[C@H]1CC[C@H](Nc2nc(-c3ccccc3)nc3[nH]ccc23)CC1
2. CC[C@@H]1/C=C(\C)C[C@H](C)C[C@H](OC)[C@H]2O[C@@](O)(C(=O)C(=O)N3CCCC[C@H]3C(=O)O[C@H](/C(C)=C/[C@@H]3CC[C@@H](O)[C@H](OC)C3)[C@H](C)[C@@H](O)CC1=O)[C@H](C)C[C@@H]2OC

Reply:
96.9
95.2

Please state, for each entry, its recorded cell viability.
1. CC(Cc1ccccc1)(NC(=O)CN)c1ccccc1 (stereo not drawn) [remacemide]
2. CCC1(C)CC(=O)NC(=O)C1 [bemegride]
3. O=C(Nc1cc(C(F)(F)F)cc(C(F)(F)F)c1)c1cc(Cl)ccc1O

Reply:
1. 94
2. 102
3. 11.2

====

System: Calu-3
Method description: drug sensitivity score (DSS) for viability; higher = more toxic; extreme values may be limits of the assay
Recorded conditions: 72 h
Quantity name: drug sensitivity score
One number for each entry.

Please state, for each entry, its recorded drug sensitivity score.
1. COc1ccc(-c2nc(-c3ccc(-c4cccc(Cl)c4)o3)[nH]c2-c2ccc(OC)cc2)cc1 [neurodazine]
2. CCN(CC)CCO[C@H]1CC[C@@]2(C)C(=CC[C@@H]3[C@@H]2CC[C@]2(C)C(=O)CC[C@@H]32)C1
3. O=C(O)C[C@H](O)C[C@H](O)/C=C/c1c(C2CC2)nc2ccccc2c1-c1ccc(F)cc1 [pitavastatin]
4. O=C1OC(c2ccc(O)cc2)(c2ccc(O)cc2)c2ccccc21 [phenolphthalein]

Reply:
[0.6, 7.7, 4.4, 0]

Please state, for each entry, its recorded drug sensitivity score.
1. NC(=O)N1C(=O)/C(=C(\O)c2cccs2)c2cc(Cl)ccc21 [tenidap]
2. CCN(CCO)CCCOc1ccc2c(Nc3cc(CC(=O)Nc4cccc(F)c4)[nH]n3)ncnc2c1 [barasertib-HQPA]
3. O=c1c(-c2ccc(O)cc2)coc2cc(O)cc(O)c12 [genistein]
4. CCCC(CCC)C(=O)NCc1ccc2c(cnn2-c2ccccc2OC)c1 [M-25]
5. CCCC(CCC)C(=O)O[C@H]1C[C@H]2CC[C@@H](C1)[N+]2(C)C [anisotropine]

Reply:
[0, 0, 0.3, 0, 0]

Please state, for each entry, its recorded drug sensitivity score.
1. COC(=O)Nc1ccc(-c2nc(N3CCOCC3)c3cnn(C4CCN(C(=O)OC)CC4)c3n2)cc1 [WYE-354]
2. Cn1ncc(Cl)c1-c1cc(C(=O)N[C@H](CN)Cc2ccc(F)c(F)c2)oc1Cl [uprosertib]
3. CCOC(=O)O[C@]1(C(=O)OCCl)CC[C@H]2[C@@H]3CCC4=CC(=O)C=C[C@]4(C)[C@H]3[C@@H](O)C[C@@]21C [loteprednol]

Reply:
1. 3.8
2. 5.8
3. 0.6

Please state, for each entry, its recorded drug sensitivity score.
1. CC(C)(Sc1ccncc1-c1ccc(C#N)c2ccccc12)C(=O)O [verinurad]
2. O=C(O)CNC(=O)c1ccccc1 [hippuric-acid]

Reply:
0
0

Please state, for each entry, its recorded drug sensitivity score.
1. O=C(NCc1ccc(Oc2ccccc2)cc1)c1nc(-c2cc(Br)c(O)c(Br)c2)no1 [IOWH032]
2. Cc1cccc(/C=N/Nc2cc(N3CCOCC3)n3nc(-c4ccncc4)cc3n2)c1 [APY0201]
3. COc1ccc(NC(=O)c2ccc(-c3ccc(-c4noc(C)n4)cc3C)cc2)cc1OCCN(C)C
4. O=c1ccc2cc(O[C@@H]3O[C@H](CO)[C@@H](O)[C@H](O)[C@H]3O)c(O)cc2o1 [esculin]

Reply:
1. 0
2. 2
3. 6.1
4. 0

====

Tested on: Vero E6
Method description: cell viability relative to DMSO; higher = less toxic
Recorded conditions: 72 h; 1000 nM
Quantity name: cell viability (%)
Numbers only, in %.

As a guide, the following entries are already answered.
c1cc2c3c(c1)c1c(n3CCNC2)CCCC1 ... 98.8
O=C(Nc1cc(C(F)(F)F)cc(C(F)(F)F)c1)c1cc(Cl)ccc1O ... 52.6

Query: Fill in the recorded cell viability for this molecule, with Vero E6 as test system: CN(C)C(=O)n1nnnc1Cc1ccc(-c2ccccc2)cc1
Reply: 102

====

System: Caco-2
Method description: cell viability relative to DMSO; higher = less toxic
Recorded conditions: 72 h; 10000 nM
Quantity name: cell viability

O=P(O)(O)CN(CCN(CP(=O)(O)O)CP(=O)(O)O)CP(=O)(O)O [EDTMP] ... 104%

Please state, for each entry, its recorded cell viability.
1. CCN(CC)C(=O)/C(C#N)=C/c1cc(O)c(O)c([N+](=O)[O-])c1 [entacapone]
2. Cc1ccc(Cl)c(OC[C@H](O)CNC(C)C)c1 [1-(2-chloro-5-methylphenoxy)-3-(isopropylamino)-2-propanol]
3. O=C1C2CC=CCC2C(=O)N1SC(Cl)(Cl)Cl (stereo not drawn) [captan]
4. O=C1CC[C@@](c2ccccc2)(C2CCN(Cc3ccc(I)cc3)CC2)C(=O)N1 [iododexetimide]
5. COC(=O)[C@H](c1ccccc1Cl)N1CCc2sccc2C1 [clopidogrel]
6. C[C@@H](CCCCC(=O)Nc1ccc(C(F)(F)F)cc1)NCCc1c[nH]cn1 [HTMT]
7. CC[C@@H]1C(=O)OC[C@@H]1Cc1cncn1C [pilocarpine]

Reply:
93.2%
94.8%
88.9%
93.9%
88.2%
94.1%
103%

====

Tested on: Calu-3
Method description: cell viability relative to DMSO; higher = less toxic
Recorded conditions: 72 h; 10 nM
So I've got a bunch of compounds here, and I need their cell viability values.
Answers are plain numbers, in %.

As a guide, the following entries are already answered.
O=C1CC[C@@](c2ccccc2)(C2CCN(Cc3ccc(I)cc3)CC2)C(=O)N1 [iododexetimide] ... 110
CO[C@@H]1[C@@H](O[C@@H]2O[C@H](C)[C@@H](O[C@H]3C[C@@](C)(O)[C@@H](OC(=O)CC(C)C)[C@H](C)O3)[C@H](N(C)C)[C@H]2O)[C@@H](CC=O)C[C@@H](C)[C@@H](O)/C=C/C=C/C[C@@H](C)OC(=O)C[C@H]1OC(C)=O ... 102
C[C@]1(O)C[C@@H](c2nc(-c3ccc4ccc(-c5ccccc5)nc4c3)c3c(N)nccn32)C1 ... 104
NC(=O)N1c2ccccc2CC(=O)c2ccccc21 [oxcarbazepine] ... 93.6
C[C@@H](CCCCC(=O)Nc1ccc(C(F)(F)F)cc1)NCCc1c[nH]cn1 ... 97.8

Please state, for each entry, its recorded cell viability.
1. C[C@H](Nc1cc(NS(=O)(=O)N2CCC2)nc(SCc2cccc(F)c2F)n1)[C@@H](O)CO
2. Nc1cccc2c(=O)[nH][nH]c(=O)c12 [monosodium-alpha-luminol]
3. N[C@@H](C[C@@H](F)C(=O)O)C(=O)O
4. CC1(C)[C@@H](OC(=O)CCC(=O)O)CC[C@]2(C)[C@H]3C(=O)C=C4[C@@H]5C[C@@](C)(C(=O)O)CC[C@]5(C)CC[C@@]4(C)[C@]3(C)CC[C@@H]12 [CARBENOXOLONE SODIUM]
5. Cc1cccc(C(C)c2c[nH]cn2)c1C (stereo unspecified)
6. O=C(Nc1ccc2[nH]ccc2c1)c1ccccc1

Reply:
97.1
100
94.7
102
98.5
99
